Target: Cytosolic phospholipase A2 (Homo sapiens)
Test: Inhibition of human isolated cPLA2-alpha by vesicle assay at 10 uM
Activity calls are given as the source filed them. The rule behind the calls is not given here.
Endpoint Name: inhibition

Some compounds with recorded inhibition:
Compound Structure String	inhibition
CCCCCCCCc1ccc(OCC(=O)Cn2ccc3cc(C(=O)OC)ccc32)cc1	36%
CCCCCCCCc1ccc(OCC(=O)Cn2cc(C(=O)O)c3ccccc32)cc1	40%
CCCCCCCCc1ccc(OCC(=O)Cn2ccc3ccccc32)cc1	inactive
CCCCCCCCc1ccc(OCC(=O)Cn2ccc3cc(Cl)ccc32)cc1	inactive
CCCCCCCCc1ccc(OCC(=O)Cn2ccc3cc(OC)ccc32)cc1	inactive

Task item: I'd like to know its inhibition. The compound in question is `CCCCCCCCc1ccc(OCC(=O)Cn2ccc3cc(C)ccc32)cc1`
Reply: inactive

Task item: I'd like to know its inhibition. The compound in question is `CCCCCCCCc1ccc(OCC(=O)Cn2ccc3c(C(=O)O)cccc32)cc1`
Reply: 40%

Task item: I'd like to know its inhibition. The compound in question is `CCCCCCCCc1ccc(OCC(=O)Cn2c(C(=O)O)cc3ccccc32)cc1`
Reply: inactive

Task item: I'd like to know its inhibition. The compound in question is `CCCCCCCCc1ccc(OCC(=O)Cn2ccc3cc(C#N)ccc32)cc1`
Reply: 25%
